Items are presented alongside their recorded pIC50.
System: CEM cells HIV-1 protection, formazan growth assay
Experiment: NCI AIDS Antiviral Assay
Details: measured here: growth of uninfected CEM cells
pIC50: −log10 of the molar value.

A selection of reference data follows.
# COMPOUND, pIC50
records = [
    ("CCOC(=O)/C=C/c1cccc(Cl)c1", "< 4.61"),
    ("C/C(=N/c1[nH]c(=O)cc2c1C(=O)CC2)N(C)C", "< 3.70"),
    ("COC(=O)C1=CC(O)CCC1c1ccc(OC)cc1 (stereo unspecified)", "< 3.44"),
    ("CC(C)CCC[C@@H](C)C1CCC2[C@@H]3CCC4C[C@@H](CCCC=C(c5cc(Cl)c(O)c(C(=O)O)c5)c5cc(Cl)c(O)c(C(=O)O)c5)CC[C@]4(C)C3CC[C@@]21C (stereo partly specified)", 3.78),
    ("CC1(C)OC(=O)C2C3C=CC(C2C(=O)O)C31 (stereo unspecified)", "< 2.95"),
]

Find the recorded pIC50 belonging to Cc1nc2ccccc2c(=O)n1/N=C/c1ccc(N(C)C)cc1 and report it.
< 3.70

Now consider O=C1c2ccccc2SC[C@@H]2CCCN12 .
< 3.39

====

Items are presented alongside their recorded pIC50.
System: CEM cells HIV-1 protection, formazan growth assay
Assay: NCI AIDS Antiviral Assay
Conditions: measured here: growth of uninfected CEM cells
pIC50: −log10 of the molar value.

A selection of reference data follows.
# MOLECULE, TGT, pIC50
measured = [
    ("CC(C)(C)OC(=O)NC1CC=CCC1NC(=O)OC(C)(C)C (centres undefined)", "CEM cells HIV-1 protection, formazan growth assay", "< 3.70"),
    ("NS(=O)(=O)c1nnc(NS(=O)(=O)c2cccc3cccnc23)s1", "CEM cells HIV-1 protection, formazan growth assay", "< 3.70"),
    ("CCC1(CC)C(=O)NN(C(=O)c2ccccc2)C1=O", "CEM cells HIV-1 protection, formazan growth assay", "< 3.70"),
    ("C[N+]1(CCCl)CCc2cc([N+](=O)[O-])ccc2C1 (centres undefined)", "CEM cells HIV-1 protection, formazan growth assay", "< 3.70"),
    ("CC(C1=CC=C2[C@@H]3CCC4CC(N(C)C)CC[C@]4(C)C3CC[C@]12C)N(C)C=O (some centres undefined)", "CEM cells HIV-1 protection, formazan growth assay", "< 4.45"),
]

API: value(readout=pIC50, system=CEM cells HIV-1 protection, formazan growth assay) for record N#C/C(=C1\SCC(=O)N1c1ccccc1)c1nc2ccccc2[nH]1
< 5.36

Now consider Cc1nc(C)c2c(n1)Oc1ccc3ccccc3c1C2 .
< 4.31

Now consider O=C1/C(=C/c2ccc(OC(=O)c3ccccc3)cc2)CCC/C1=C\c1ccc(OC(=O)c2ccccc2)cc1 .
< 4.00

Now consider c1ccc(-c2nc3ccccc3nc2SCc2cccnc2)cc1 .
< 5.10

====

Test system: CEM cells HIV-1 protection, formazan growth assay
Assay: NCI AIDS Antiviral Assay
Conditions: measured here: growth of uninfected CEM cells
Where a SMILES comes first, the peptide text is derived from it. Bridges are numbered along the chain shown (N, C = ends). Roman numbers before positions name the chains, in order.
Items are presented alongside their recorded IC50.

A selection of reference data follows.
# COMPOUND, IC50
data = [
    ("Cc1cc(C)nc(NS(=O)(=O)c2ccc(N)cc2)n1", "> 200 µM"),
    ("O=C(c1ccc([N+](=O)[O-])cc1[N+](=O)[O-])N(/N=C/C=C/c1ccccc1)c1nnc(-c2ccccc2)c(-c2ccccc2)n1", "> 9.12 µM"),
]

Find the recorded IC50 belonging to Cc1c(Cl)cccc1NC(=O)C(=O)C1C(=O)CC(C)(C)CC1=O and report it.
> 741 µM

Now consider O=C(NCc1ccccc1)c1c(O)c2ccccc2[nH]c1=O .
> 200 µM

Now consider CC(NC(=O)C(N)CSSCC(N)C(=O)NC(C)C(=O)O)C(=O)O (stereo not drawn) (I: H-Cys-Ala-OH / II: H-Cys-Ala-OH; disulfide I:1-II:1; configuration not given here) .
> 178 µM

====

Tested on: CEM cells HIV-1 protection, formazan growth assay
Experiment: NCI AIDS Antiviral Assay
Conditions: measured here: growth of uninfected CEM cells
pIC50: −log10 of the molar value.
READOUT_KIND: pIC50

A selection of reference data follows.
# MOLECULE, pIC50
measured = [
    ("CCOC(=O)c1c(Sc2ccc([N+](=O)[O-])cc2[N+](=O)[O-])nc2c3ccccc3ccn12", "< 3.70"),
    ("O=C(CC1C(=O)Nc2ccccc2S1=O)Nc1cccc(Cl)c1 (stereo not given)", "< 4.68"),
    ("COc1ccc(C(=O)C(C(=O)C(=O)Nc2nccs2)c2ccc(OC)cc2)cc1 (stereo not given)", "< 4.20"),
    ("CC1(C)CC(=O)C(/C=N/C(=S)NCc2ccccc2)=C(O)C1", "< 3.70"),
]

Find the recorded pIC50 belonging to CCCC/C=C(/CCCNC=O)[Si](C)(C)C and report it.
< 3.27

====

System: CEM cells HIV-1 protection, formazan growth assay
Assay: NCI AIDS Antiviral Assay;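 active = compounds giving half or more protection of infected cells from virus-caused growth loss, again on retest; inactive = the rest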
Outcomes you can answer with include only these: 1 = active, 0 = inactive

# MOLECULE, GROUP
records = [
    ("Cc1c(C)c(C)c(-n2c(=O)n(C)c(=O)n2C(C)(C)C)c(C)c1C", 0),
    ("COC1O[C@H]2[C@H]3[C@@H]1[C@@H](OS(=O)(=O)c1ccc(C)cc1)C(=O)N3C[C@H]2O (stereo partly drawn)", 1),
]

Could you now look at the following molecule, please?
Hi team, can someone confirm the assay call for Cc1ncc(CC#N)c2c1OC(C)(C)OC2 ?
0

====

System: CEM cells HIV-1 protection, formazan growth assay
Experiment: NCI AIDS Antiviral Assay
Settings: measured here: growth of uninfected CEM cells
pIC50: −log10 of the molar value.
READOUT_KIND: pIC50

A selection of reference data follows.
# COMPOUND, pIC50
data = [
    ("CCN(CC)c1nnc(CCCCCCCCc2nnc(N(CC)CC)o2)o1", "< 3.70"),
    ("COC(=O)c1ccc(C)cc1C1CN=NC12Cc1c(C)cccc1C2=O (centres undefined)", "< 3.70"),
    ("CC(=O)c1ccc(Cc2ccc(C(C)=O)s2)s1", "< 3.70"),
]

Find the recorded pIC50 belonging to Cc1cc2c(=O)c3ccccc3oc2c(C#N)c1C and report it.
< 4.70

====

Tested on: CEM cells HIV-1 protection, formazan growth assay
Assay: NCI AIDS Antiviral Assay
Conditions: measured here: growth of uninfected CEM cells
Items are presented alongside their recorded IC50.

# MOLECULE, TGT, IC50
measured = [
    ("COc1ccc(OC)c(CNc2ccc(C(=O)O)cc2)c1", "CEM cells HIV-1 protection, formazan growth assay", "> 200 µM"),
    ("CC(C)(C)OC(=O)N1CCC2(CC1)C(=O)NCN2c1ccccc1", "CEM cells HIV-1 protection, formazan growth assay", "> 200 µM"),
]

Find the recorded IC50 belonging to Cc1cn(C(Cc2ccccc2)OCC[Se]c2ccccc2)c(=O)[nH]c1=O (stereo not drawn) and report it.
> 200 µM

====

System: CEM cells HIV-1 protection, formazan growth assay
Test: NCI AIDS Antiviral Assay
Protocol: The ability of compounds to protect human CEM cells from HIV-1 infection is measured as a screen for new compounds capable of inhibiting the HIV virus. Five concentrations of drug were tested on uninfected and infected cells and cell growth was measured using a soluble formazan assay. […] Compounds that provided at least 50% protection were retested. Compounds that provided at least 50% protection on retest were listed as moderately active. […]
pEC50: −log10 of the molar value.
READOUT_KIND: pEC50

# COMPOUND, pEC50
data = [
    ("COC(=O)CCCc1ccc2c(c1)CC1(C2)Cc2cc3c(cc2C1)CCCC3", "< 3.70"),
]

API: value(readout=pEC50, system=CEM cells HIV-1 protection, formazan growth assay) for record C=C(C)CNC(=S)N(N)c1ccc2ccccc2c1
< 3.70

Now consider COc1ccc(N=Nc2c(N)nn3cc4c(nc23)-c2ccccc2C4)cc1 .
< 3.70

====

Tested on: CEM cells HIV-1 protection, formazan growth assay
Test: NCI AIDS Antiviral Assay
Settings: measured here: growth of uninfected CEM cells
Items are presented alongside their recorded pIC50.
Lab note: report pIC50 as minus log10 of the concentration in molar units, number only.

A selection of reference data follows.
# MOLECULE, pIC50
data = [
    ("O=c1cc(-c2ccccc2)oc2cc(O)cc(O)c12", 4.42),
    ("COc1ccc2nc3ccccc3c(NCCCCCN(CCCl)CCCl)c2c1", 6.55),
    ("Cc1ccccc1N=NC(C(=O)c1ccccc1)C(=O)c1ccccc1", 4.83),
    ("Nc1nc(Cl)c(N)c(NCC2(CO)CC(CCCc3ccccc3)C2)n1 (centres undefined)", 6.73),
]

With those in mind, consider the next molecule.
Find the recorded pIC50 belonging to CC(=S)N=Cc1c(C)[nH]n(-c2ccccc2)c1=O and report it.
4.38

These measurements were taken from PubChem BioAssay AID179.
